Tested on: human APOE RNA
Assay: Dose-dependent inhibition of human APOE RNA in differentiated SH-SY5Y cells, free uptake, 5 days (Example 5)
Assay type: cell-based
Details: 8,000 nM, 5 days (Table 14)
Strand notation (5' to 3'): a small letter for the sugar, then the base; units joined by * are phosphorothioate-linked, units joined directly phosphodiester-linked; [ ] holds rarer units or linkages, { } end groups; capitals alone tell only the bases. [ms] = mesyl phosphoramidate linkage; e = 2'-O-(2-methoxyethyl) (MOE); k = constrained ethyl (cEt); [5mC] = 5-methylcytosine; d = 2'-deoxy (DNA)
Let's look at some substances and their measured APOE RNA (% UTC).
Provide the reading as a plain figure in % UTC.

[
  {
    "substance": "1778131: modified oligonucleotide complementary to human APOE RNA (eA*e[5mC]eTeTeGkG*dT*dG[ms]dA[ms]dA*dT*d[5mC]*dT*dT*dT*dA[ms]kTkT*eA*eA; antisense) [compound 1778131]",
    "value-type": "APOE RNA (% UTC)",
    "unit-of-measure": "% UTC",
    "recorded-number": 25
  },
  {
    "substance": "1746804 (k[5mC]*kT*kT*dG[ms]dG[ms]dT[ms]dG[ms]dA[ms]dA[ms]dT*d[5mC]*dT*dT*dT*dA[ms]dT*dT[ms]kA*kA*kA; antisense) [Compound 1746804]",
    "value-type": "APOE RNA (% UTC)",
    "unit-of-measure": "% UTC",
    "recorded-number": 32
  }
]

Proceed to the following item.
Ask: Data request, read-out APOE RNA (% UTC), for 1757575 (eA*e[5mC]eTeT*kG*kG*dT*dG[ms]dA[ms]dA[ms]dT*d[5mC]*dT*dT*dT*dA[ms]kT*eT*eA*eA; antisense) [Compound 1757575]
Result: 12

---

Let's look at some substances and their measured APOE RNA (% control) Spinal Cord.
Tested on: human APOE RNA
Experiment: Activity in APOE C57BL/6NTac-Apoeem7250 knock-in mice, single ICV bolus, 8 weeks (Example 11)
Assay type: in vivo
Settings: spinal cord; single ICV bolus 300 μg; 8 weeks post treatment; normalized to mouse Ppia
Strand notation (5' to 3'): a small letter for the sugar, then the base; units joined by * are phosphorothioate-linked, units joined directly phosphodiester-linked; [ ] holds rarer units or linkages, { } end groups; capitals alone tell only the bases. [ms] = mesyl phosphoramidate linkage; e = 2'-O-(2-methoxyethyl) (MOE); k = constrained ethyl (cEt); [5mC] = 5-methylcytosine; d = 2'-deoxy (DNA)
Provide the reading as a plain figure in % control.

[
  {
    "substance": "1778120 (eA*e[5mC]eTeTeGeG*dT*dG[ms]dA[ms]dA*dT*d[5mC]*dT*dT*dT*dA[ms]kTeT*eA*eA; antisense) [Compound 1778120]",
    "APOE RNA (% control) Spinal Cord": 24
  },
  {
    "substance": "1809690: mixed MOE/cEt gapmer CTTGGTGAATCTTTATTAA, sugar eeeekddddddddddkkek, linkages sosssszzzssssszoss (e[5mC]*eTeT*eG*kG*dT*dG[ms]dA[ms]dA[ms]dT*d[5mC]*dT*dT*dT*dA[ms]kTkT*eA*kA) [compound 1809690]",
    "APOE RNA (% control) Spinal Cord": 24
  },
  {
    "substance": "1693052: 5-10-5 MOE gapmer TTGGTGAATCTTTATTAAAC, linkages sossszzzsssssssosss (antisense eT*eTeG*eG*eT*dG[ms]dA[ms]dA[ms]dT*d[5mC]*dT*dT*dT*dA*dT*eTeA*eA*eA*e[5mC]) [compound 1693052]",
    "APOE RNA (% control) Spinal Cord": 79
  }
]

Proceed to the following item.
Ask: Data request, read-out APOE RNA (% control) Spinal Cord, for 1809745: mixed MOE/cEt gapmer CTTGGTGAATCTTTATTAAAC, sugar eeeeekddddddddddeeeee, linkages zsoooszzsssssszsoosz (e[5mC][ms]eT*eTeGeGkT*dG[ms]dA[ms]dA*dT*d[5mC]*dT*dT*dT*dA[ms]dT*eTeAeA*eA[ms]e[5mC]) [compound 1809745]
Result: 16
